system: K. pneumoniae ATCC700603; experiment: MIC, CLSI broth microdilution, Test Example 2; type: cell-based; conditions: Klebsiella pneumoniae, ATCC700603; SHV18 ESBL producing strain; cation-adjusted Iso-Sensitest broth containing human Apo-transferrin; 5×10^5 cfu/mL; read-out: Minimum Inhibitory Concentration (MIC) K. pneumoniae ATCC 700603
property-measured: MIC (µg/mL)
Numeric only. Scale: µg/mL

Solved entries (count: 3):
CC(C)(O/N=C(\C(=O)N[C@@H]1C(=O)N2C(c3nnn[n-]3)=C(C[N+]3(CCNC(=O)c4ccc(O)c(O)c4Cl)CCCCC3)CS[C@H]12)c1csc(N)n1)C(=O)[O-].[Na+] = 0.125
CC(C)(O/N=C(\C(=O)N[C@@H]1C(=O)N2C(c3nnn[n-]3)=C(C[N+]3(C)[C@@H]4CC[C@H]3CC(NC(=O)c3cc(O)c(O)c(F)c3)C4)CS[C@H]12)c1nc(N)sc1Cl)C(=O)[O-].[Na+] (stereo partly shown) = 0.25
C[N+]1(CC2=C(c3nnn[nH]3)N3C(=O)[C@@H](NC(=O)/C(=N\O[C@@H](CC(=O)O)C(=O)O)c4nc(N)sc4Cl)[C@H]3SC2)[C@@H]2CC[C@H]1C[C@@H](NC(=O)c1ccc(O)c(O)c1Cl)C2.[Na+].[Na+] (stereo partly shown) = 1

Next compound, please.
Value of measured MIC for the entry CC(C)(O/N=C(\C(=O)N[C@@H]1C(=O)N2C(c3nnn[nH]3)=C(C[N@+]34CCC[C@H]3CN(C(=O)c3ccc(O)c(O)c3Cl)CC4)CS[C@H]12)c1nsc(N)n1)C(=O)[O-] : 0.5

---

system: P. aeruginosa SR27060; assay: MIC, CLSI broth microdilution, Test Example 1; format: cell-based; settings: Pseudomonas aeruginosa, SR27060; IMP-1 MBL producing strain (carbapenem resistance strain); cation-adjusted Mueller Hinton broth containing human apo-transferrin; 5×10^5 cfu/mL; read-out: Minimum Inhibitory Concentration (MIC) P. aeruginosa SR27060
property-measured: MIC (µg/mL)
Numeric only. Scale: µg/mL

Solved entries (count: 2):
Nc1nc(/C(=N/O[C@@H](CC(=O)[O-])C(=O)[O-])C(=O)N[C@@H]2C(=O)N3C(c4nnn[n-]4)=C(C[N+]45CCC[C@H]4CN(C(=O)c4cc(O)c(O)c(Cl)c4)CC5)CS[C@H]23)cs1.[Na+].[Na+] (stereo partly drawn) = 0.5
CC(C)(O/N=C(\C(=O)N[C@@H]1C(=O)N2C(c3nn[n-]n3)=C(C[N+]3(C)CCC(NC(=O)c4ccc(O)c(O)c4Cl)CC3)CS[C@H]12)c1csc(N)n1)C(=O)[O-].[Na+] (stereo partly drawn) = 1

Next compound, please.
// assay P. aeruginosa SR27060, entry CC(C)(O/N=C(\C(=O)N[C@@H]1C(=O)N2C(c3nnn[n-]3)=C(C[N+]3(CCNC(=O)c4ccc(O)c(O)c4Cl)CCCC3)C[S+]([O-])[C@H]12)c1csc(N)n1)C(=O)[O-].[Na+] (stereo partly drawn) , MIC value = 4

---

System: A. baumannii SR27323
Assay: MIC, CLSI broth microdilution, Test Example 1
Format: cell-based
Settings: Acinetobacter baumannii, SR27323; OXA-23, OXA-58 carbapenemase producing strain; cation-adjusted Mueller Hinton broth containing human apo-transferrin; 5×10^5 cfu/mL; read-out: Minimum Inhibitory Concentration (MIC) A. baumannii SR27323
Method: Measurement of Minimum Inhibitory Concentration (MIC: μg/mL) was conducted according to CLSI (Clinical and Laboratory Standards Institute) method, and the amount of bacteria for inoculation was 5×10^5 cfu/mL, and cation-adjusted Mueller Hinton broth containing human apo-transferrin was used as a test medium, and the experiment was conducted using broth microdilution method. The bacteria used are listed below.
Quick reference: MIC of the listed items.
Numeric only. Scale: µg/mL

Solved entries (count: 2):
CC(C)(O/N=C(\C(=O)N[C@@H]1C(=O)N2C(c3nn[n-]n3)=C(C[n+]3ccc(C(=O)c4ccc(O)c(O)c4Cl)cc3)CS[C@H]12)c1csc(N)n1)C(=O)[O-].[Na+] = 0.5
CC(C)(O/N=C(\C(=O)N[C@@H]1C(=O)N2C(c3nn[n-]n3)=C(C[n+]3ccc(NCc4ccc(O)c(O)c4Cl)cc3)CS[C@H]12)c1csc(N)n1)C(=O)[O-].[Na+] = 1

Next compound, please.
Value of measured MIC for the entry CC(C)(O/N=C(\C(=O)N[C@@H]1C(=O)N2C(c3nnn[n-]3)=C(C[N+]3(CCNC(=O)c4cc(O)c(O)c(Cl)c4)CCCC3)CS[C@H]12)c1csc(N)n1)C(=O)[O-].[Na+] : 1

---

Quick reference: MIC of the listed items.
tested on: A. baumannii SR27323; test: MIC, CLSI broth microdilution, Test Example 1; type: cell-based; settings: Acinetobacter baumannii, SR27323; OXA-23, OXA-58 carbapenemase producing strain; cation-adjusted Mueller Hinton broth containing human apo-transferrin; 5×10^5 cfu/mL; read-out: Minimum Inhibitory Concentration (MIC) A. baumannii SR27323
Numeric only. Scale: mg/L

CC(C)(O/N=C(\C(=O)N[C@@H]1C(=O)N2C(c3nnn[n-]3)=C(C[N+]3(C)[C@@H]4CC[C@H]3C[C@@H](NC(=O)c3ccc(O)c(O)c3Cl)C4)CS[C@H]12)c1csc(N)n1)C(=O)[O-].[Na+] (stereo partly drawn) = 1
CC(C)(O/N=C(\C(=O)N[C@@H]1C(=O)N2C(c3nn[n-]n3)=C(C[N+]3(Cc4nnc(-c5ccc(O)c(O)c5Cl)o4)CCCC3)CS[C@H]12)c1csc(N)n1)C(=O)[O-].[Na+] = 0.25

Value of measured MIC for the entry CC(C)(O/N=C(\C(=O)N[C@@H]1C(=O)N2C(c3nnn[nH]3)=C(C[n+]3ccc(NC(=O)c4ccc(O)c(O)c4Cl)c4ccccc43)CS[C@H]12)c1csc(N)n1)C(=O)[O-] : 0.25

---

Quick reference: MIC of the listed items.
test system: K. pneumoniae ATCC700603; experiment: MIC, CLSI broth microdilution, Test Example 2; type: cell-based; settings: Klebsiella pneumoniae, ATCC700603; SHV18 ESBL producing strain; cation-adjusted Iso-Sensitest broth containing human Apo-transferrin; 5×10^5 cfu/mL; read-out: Minimum Inhibitory Concentration (MIC) K. pneumoniae ATCC 700603
Numeric only. Scale: µg/mL

Solved entries (count: 3):
CC(C)(O/N=C(\C(=O)N[C@@H]1C(=O)N2C(c3nnn[n-]3)=C(C[n+]3ccc(CNC(=O)c4ccc(O)c(O)c4Cl)cc3)CS[C@H]12)c1nsc(N)n1)C(=O)[O-].[Na+] = 1
Cc1cc2cc(O)c(O)cc2c[n+]1CC1=C(c2nnn[n-]2)N2C(=O)[C@@H](NC(=O)/C(=N\OC(C)(C)C(=O)[O-])c3nc(N)sc3Cl)[C@H]2SC1.[Na+] = 0.125
CC(C)(O/N=C(\C(=O)N[C@@H]1C(=O)N2C(c3nnn[nH]3)=C(C[N@+]34CCC[C@H]3CN(C(=O)c3ccc(O)c(O)c3Cl)CC4)CS[C@H]12)c1csc(N)n1)C(=O)[O-] = 0.25

// assay K. pneumoniae ATCC700603, entry CC(C)(O/N=C(\C(=O)N[C@@H]1C(=O)N2C(c3nnn[nH]3)=C(C[N@+]34CCC[C@H]3CN(C(=O)c3ccc(O)c(O)c3Cl)CC4)CS[C@H]12)c1nc(N)sc1Cl)C(=O)[O-] , MIC value = 0.25

// assay K. pneumoniae ATCC700603, entry Nc1nc(/C(=N/O[C@@H](CC(=O)O)C(=O)[O-])C(=O)N[C@@H]2C(=O)N3C(c4nnn[nH]4)=C(C[N+]4(CCNC(=O)c5cc(O)c(O)c(F)c5)CCCC4)CS[C@H]23)cs1 , MIC value = 0.063

---

Test system: P. aeruginosa SR27060
Assay: MIC, CLSI broth microdilution, Test Example 1
Type: cell-based
Conditions: Pseudomonas aeruginosa, SR27060; IMP-1 MBL producing strain (carbapenem resistance strain); cation-adjusted Mueller Hinton broth containing human apo-transferrin; 5×10^5 cfu/mL; read-out: Minimum Inhibitory Concentration (MIC) P. aeruginosa SR27060
Protocol: Measurement of Minimum Inhibitory Concentration (MIC: μg/mL) was conducted according to CLSI (Clinical and Laboratory Standards Institute) method, and the amount of bacteria for inoculation was 5×10^5 cfu/mL, and cation-adjusted Mueller Hinton broth containing human apo-transferrin was used as a test medium, and the experiment was conducted using broth microdilution method. The bacteria used are listed below.
Quick reference: MIC of the listed items.
Don't forget the unit after the number, please.

Solved entries (count: 2):
CC(C)(O/N=C(\C(=O)N[C@@H]1C(=O)N2C(c3nnn[n-]3)=C(Cn3cc[n+](CCNC(=O)c4ccc(O)c(O)c4Cl)c3)CS[C@H]12)c1csc(N)n1)C(=O)[O-].[Na+] = 0.25 µg/mL
CC(C)(O/N=C(\C(=O)N[C@@H]1C(=O)N2C(c3nn[n-]n3)=C(C[N+]3(Cc4nc(-c5ccc(O)c(O)c5Cl)no4)CCCC3)CS[C@H]12)c1csc(N)n1)C(=O)[O-].[Na+] = 0.5 µg/mL

Next compound, please.
Value of measured MIC for the entry CC(C)(O/N=C(\C(=O)N[C@@H]1C(=O)N2C(c3nnn[n-]3)=C(C[n+]3cccc(NC(=O)c4ccc(O)c(O)c4Cl)c3)CS[C@H]12)c1csc(N)n1)C(=O)[O-].[Na+] : 0.25 µg/mL
